Listed here: items and their measured Kd.
- test-target: SARS-CoV-2 Spike receptor binding domain (RBD), wild type, His-tagged (SARS-CoV-2, UniProt P0DTC2)

[
  {
    "binder": "254 (antibody, V domains shown) VH: EVQLLESGGGLVQPGGSLRLSCAASGFTFSSSAMHWVRQAPGKGLEWVSAIGTGGDTYYADSVKGRFTISRDNSKNTLYLQMNSLRAEDTAVYYCAREGDGYNFYFDYWGQGTLVTVSS VL: DIQMTQSPSSLSASVGDRVTITCRASQGISSYLAWYQQKPGKAPKLLIYDASSLQIGVPSRFSGSGSGTDFTLTISSLQPEDFATYYCLQSYSTPPWTFGQGTKVEIK",
    "unit-of-measurement": "nM",
    "Kd": 127
  },
  {
    "binder": "108 (antibody, V domains shown) VH: QVQLVQSGAEVKKPGASVKVSCKASGYIFSRYAIHWVRQAPGQGLEWMGWMNPISGNTDYAPNFQGRVTMTRDTSTSTVYMELSSLRSEDTAVYYCAKDGSQLAYLVEYFQHWGQGTLVTVSS VL: DIQMTQSPSSLSASVGDRVTITCRASQVITNNLAWYQQKPGKAPKLLIYDASTLETGVPSRFSGSGSGTDFTLTISSLQPEDFATYYCQQSYTFPYTFGQGTKVEIK",
    "unit-of-measurement": "nM",
    "Kd": 72
  },
  {
    "binder": "349 (antibody, V domains shown) VH: EVQLLESGGGLVQPGGSLRLSCAASGFTFSNYGMHWVRQAPGKGLEWVSGISSAGSITNYADSVKGRFTISRDNSKNTLYLQMNSLRAEDTAVYYCAGNHAGTTVTSEYFQHWGQGTLVTVSS VL: DIQMTQSPSSLSASVGDRVTITCRASQSISSWLAWYQQKPGKAPKLLIYDTSNLETGVPSRFSGSGSGTDFTLTISSLQPEDFATYYCQQSYTTPWTFGQGTRLEIK",
    "unit-of-measurement": "nM",
    "Kd": 74
  },
  {
    "binder": "64 (antibody, V domains shown) VH: EVQLLESGGGLVQPGGSLRLSCAASGFPFSQHGMHWVRQAPGKGLEWVSAIDRSGSYIYYADSVKGRFTISRDNSKNTLYLQMNSLRAEDTAVYYCARDTYGGKVTYFDYWGQGTLVTVSS VL: DIQMTQSPSSLSASVGDRVTITCRASQGISSHLAWYQQKPGKAPKLLIYDASNLETGVPSRFSGSGSGTDFTLTISSLQPEDFATYYCQQTYSTPWTFGQGTKVEIK",
    "unit-of-measurement": "nM",
    "Kd": 97
  }
]
